The measured values listed here are drawn from ChEMBL document CHEMBL1157539.

Recorded Inhibition for the following molecules
Test system: HepG2
testMethodNotes: GSK_TCMDC: Percent inhibition of human HepG2 cell line. Test compounds present at 10uM.
Type: functional
Just the number in %, nothing appended.

Here's what some known entries look like.
{"columns": ["molecule", "recordedResult"],
 "data": [
  ["CCOC(=O)c1cnc2c(OC)cc(OC)c(Cl)c2c1Nc1cccc(C)c1", 0],
  ["O=C(Nc1cccc(-c2cc(-c3c(Cl)cccc3Cl)no2)c1)c1cnc2ccccc2c1", 0],
  ["Cc1ccc(Cc2c(C)nc3nc(N)nc(N)c3c2C)cc1.Cl", 60],
  ["CCN(CC(C)O)C(=O)c1ccc(-c2cccc(-c3nc4cccc(C)c4[nH]3)c2)cc1 (stereo not given)", 28],
  ["Cl.Fc1ccc2ncc(Cl)c(CCN3CCC(NCc4cc5c(cn4)OCCO5)CC3)c2c1", 24],
  ["COc1ccccc1N=C1SC(=Cc2cn(CC(=O)N3CCCc4ccccc43)c3ccccc23)C(=O)N1C1CCCCC1", 10]
]}

Query Inhibition for CC(C)COc1ccc(Cl)cc1Cc1ccc(-c2nc3ccc(Br)cc3[nH]2)o1.Cl 19

Query Inhibition for Cc1noc(C)c1-c1cccc(CNCc2cccc(-c3csc(-c4nc5ccccc5[nH]4)c3)c2)c1.O=C(O)C(F)(F)F 32
